Tested on: SKOV3
Assay: MTT cytotoxicity assay, SKOV3
Details: Homo sapiens, SK-OV-3, read-out: cytotoxicity IC50 SKOV3
I'd appreciate it if you could supply IC50 values for the items below.
Numbers only, in nM.

CC(C)C[C@H](NC(=O)[C@H](Cc1ccccc1)NC(=O)c1cnccn1)B(O)O [Bortezomib, bortezomib, reference compound]: 1.5
N[C@@H](Cc1ccccc1)C(=O)N1C/C(=C\c2ccc(Cl)c(Cl)c2)C(=O)/C(=C/c2ccc(Cl)c(Cl)c2)C1 [RA190, reference compound]: 73

In the following, a different molecule is considered.
Inquiry: Request: IC50, test system SKOV3, entry CC1/C(=C\c2ccc(F)cc2)C(=O)/C(=C/c2ccc(F)cc2)CN1C(=O)[C@@H](N)Cc1ccccc1 (mixture of isomers) [RA462]
Reply text: 112
